// reported growth for each item listed
# Tested on: SF-268 CNS
# Protocol Description: NCI-60 one-dose screen, 48 h (100 = growth as untreated, 0 = no growth, -100 = all killed)
# Reported Conditions: 10 µM unless noted
The panel holds about 83,000 compounds, 20% with a hit somewhere; the sample as a whole holds those more often.
Expressed in %, but write only the number.

Here's what some known entries look like.
O=C(N/N=C/c1ccc(Cl)cc1)c1ccc(NC(=O)c2ccccn2)cc1; 70.5
C/C=C1/CN(CCCCC)CC[C@H]1C(=O)c1cc2ccccc2[nH]1; 89.8
O=S(O)c1cc(Cl)cc(Cl)c1OCc1ccccc1; 101
CN(C)c1ccc(C(=S)c2ccc(N(C)C)cc2)cc1; 79.7
CS(=O)(=O)Nc1cc(-c2ccc3ncnc(Nc4ccc(F)c(Cl)c4)c3c2)ccc1Cl; 52.7

In plain terms, "C=C1C(=O)O[C@H]2[C@H]1CC/C(COC(=O)/C=C\C(=O)NCc1ccc(Cn3c(=O)sn(CCCCl)c3=O)cc1)=C\CC[C@@]1(C)O[C@@H]21" has a documented growth of 93.5

Briefly, growth measured for "CNCCCNc1nc2ccccc2c2c(=O)c3cc(Cl)ccc3sc12" : 53.8

Short answer for COc1ccc(C2[C@@H](c3ccccc3)C(=O)N2c2cc(OC)c(OC)c(OC)c2)cc1F (stereo partly specified) : growth was 31.5

Lab note: measured growth of "O=c1oc2ccccc2cc1-c1nn(-c2ccccc2)cc1-c1nn[nH]n1" was 103

growth for "O=[N+]([O-])c1ccccc1Sc1ccccc1[N+](=O)[O-]" is 88

What the record says about "O=C(Cc1ccc(/C=C/C(=O)c2ncc[nH]2)cc1)Nc1cc(F)c(F)c(F)c1" : growth is 58.3

Hey, just so you know, these numbers are from PubChem BioAssay (NCI).
